tested.target: GST-Aq-NF-kB (Amphimedon queenslandica, UniProt A9Y5G7 2-389)
Sequence: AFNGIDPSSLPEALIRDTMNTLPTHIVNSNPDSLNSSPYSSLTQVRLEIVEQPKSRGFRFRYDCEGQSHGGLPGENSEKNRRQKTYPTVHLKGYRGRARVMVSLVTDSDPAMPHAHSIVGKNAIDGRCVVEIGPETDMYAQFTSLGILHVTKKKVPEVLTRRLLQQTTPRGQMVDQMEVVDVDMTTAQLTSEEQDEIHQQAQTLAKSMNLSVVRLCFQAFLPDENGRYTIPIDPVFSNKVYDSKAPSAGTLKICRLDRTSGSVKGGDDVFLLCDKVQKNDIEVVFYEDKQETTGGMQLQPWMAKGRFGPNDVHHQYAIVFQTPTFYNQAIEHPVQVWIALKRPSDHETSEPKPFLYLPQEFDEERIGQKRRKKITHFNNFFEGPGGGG
assay.name: protein-binding microarray (PBM); PBM: ~300 nM protein, 6 mM HEPES pH 7.8, 80 mM KCl, 0.5 mM EDTA, 0.5 mM EGTA, 6% glycerol, 35 ng/ul poly-dIdC, 1% milk, 1 h, room temperature; Ap Aiptasia and Nv Nematostella (sea anemones) / Co Capsaspora / Aq Amphimedon (sponge) / Dm Drosophila / Hu human; RHD is the Rel homology domain; high values mean tight binding
particulars: dsDNA, one strand shown
observed.property: binding signal (z-score)
Give your result in z-score as a bare value.

Incoming: Value wanted: binding signal (GST-Aq-NF-kB (Amphimedon queenslandica, UniProt A9Y5G7 2-389)) of entry `CCGATTAACATCAAAATTCCCATTGATGTTAATCGGGTCTTGATTCGCTTGACGCTGCTG`
Outgoing: 4.99

Incoming: Can you look up binding signal on GST-Aq-NF-kB (Amphimedon queenslandica, UniProt A9Y5G7 2-389) for `CCGATTAACATCAGGTAATTTTATGATGTTAATCGGGTCTTGATTCGCTTGACGCTGCTG` ?
Outgoing: 2.95

Incoming: Tell me reported binding signal for `CCGATTAACATCAGAAATCCCGCTGATGTTAATCGGGTCTTGATTCGCTTGACGCTGCTG` , tested with GST-Aq-NF-kB (Amphimedon queenslandica, UniProt A9Y5G7 2-389).
Outgoing: 3.08

Incoming: What reported binding signal corresponds to `CCGATTAACATCAGGGGAACTCATGATGTTAATCGGGTCTTGATTCGCTTGACGCTGCTG` on GST-Aq-NF-kB (Amphimedon queenslandica, UniProt A9Y5G7 2-389)?
Outgoing: 4.88

Incoming: Hi! What's the reported binding signal for `CCGATTAACATCACTATTCCCCCTGATGTTAATCGGGTCTTGATTCGCTTGACGCTGCTG` on GST-Aq-NF-kB (Amphimedon queenslandica, UniProt A9Y5G7 2-389)?
Outgoing: 4.96

Each recorded value in this set is attributed to paper PMC5700166.
